// reported IC50 for each item listed
- STUDY TARGET: bromodomain of BRD9 (GST-BRD9 aa 130-259) / H3 K9/14/18/23Ac(1-28) peptide (Homo sapiens)
- Construct: The protein corresponding to amino acids 130-259 that contains the bromodomain of BRD9
- Sequence (Q9H8M2 130-259): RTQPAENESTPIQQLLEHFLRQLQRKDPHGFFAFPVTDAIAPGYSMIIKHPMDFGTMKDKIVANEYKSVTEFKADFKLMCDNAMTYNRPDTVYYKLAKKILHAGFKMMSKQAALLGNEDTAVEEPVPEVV
- TEST DESCRIPTION: BRD9-H3 tetra-acetylated Peptide Inhibition AlphaScreen
MEASURED PROPERTY: IC50 (nM)

INPUT SMILES | UNIT STRING | MEASUREMENT
COc1cc(-c2cc(C)c(=O)n(C)c2)c(OC)cc1CN1CC(O)C1 | nM | 124
Cc1cc(-c2ccc([C@@H](C)N3CCCC3)cc2)cn(C)c1=O | nM | 105
COc1cc(-c2cn(C)c(=O)c3ccccc23)cc(OC)c1CN1CC(O)C1 | nM | 8
Cc1cc(-c2ccc(CN)cc2)c(C)n(C)c1=O | nM | 880
COc1cc(-c2cc(C)c(=O)n(C)c2)ccc1C1(N2CCN(C)CC2)CC1 | nM | 215
COc1cc(-c2cn(C)c(=O)c3cnccc23)cc(OC)c1CN1CC(N)C1 | nM | 11

---

// reported IC50 for each item listed
- STUDY TARGET: bromodomain of BRD9 (GST fusion) / acetylated histone H4 peptide (BET Bromodomain Ligand) (Homo sapiens, UniProt Q9H8M2)
- Construct: A GST fusion protein of the bromodomain of BRD9; purchased BPS Biosciences #32519
- Sequence (Q9H8M2 136-240 limits assumed): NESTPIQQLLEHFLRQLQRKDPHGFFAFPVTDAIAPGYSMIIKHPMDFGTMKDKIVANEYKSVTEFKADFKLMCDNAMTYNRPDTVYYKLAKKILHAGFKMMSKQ
- TEST DESCRIPTION: BRD9-H4 Tetraacetylated Peptide Inhibition AlphaScreen
- Format: binding
- Protocol: BRD9-H4 Tetraacetylated Peptide Inhibition AlphaScreen […] 15 μl of the resulting mix are added to the assay plates that contain 150 nl of the compounds. After 60 min at room temperature the signal is measured in a PerkinElmer Envision HTS Multilabel Reader using the AlphaScreen specifications from PerkinElmer. […]

INPUT SMILES | IC50
Cc1cc(-c2cccc(OC(F)F)c2)cn(C)c1=O | 0.503 µM
Cc1cc(-c2cccc(OC(F)(F)F)c2)cn(C)c1=O | 0.568 µM
CN1CCN(C(=O)c2ccc(-c3cc(O)c(=O)n(C)c3)cc2)CC1 | 2.09 µM
Cc1cc(-c2ccc(CN3C[C@@H]4C[C@H]3CN4)cc2)cn(C)c1=O | 0.023 µM
Cc1cc(-c2ccc(C3(N)CC3)cc2)cn(C)c1=O | 0.015 µM

---

// reported log10 of IC50 for each item listed
- STUDY TARGET: bromodomain of BRD9 (GST-BRD9 aa 130-259) / H3 K9/14/18/23Ac(1-28) peptide (Homo sapiens)
- Construct: The protein corresponding to amino acids 130-259 that contains the bromodomain of BRD9
- TEST DESCRIPTION: BRD9-H3 tetra-acetylated Peptide Inhibition AlphaScreen
MEASURED PROPERTY: log10 of IC50 (log10 of the value in nM)

INPUT SMILES | MEASUREMENT
COc1cc(-c2cn(C)c(=O)c(C)c2C)ccc1CN1C[C@@H]2CC1CN2 | 2.29
COc1cc(-c2cc(C)c(=O)n(C)c2)ccc1S(=O)(=O)N1CC(O)C1 | 2.57
Cc1cc(-c2ccc([C@H](C)N)cc2)c(C)n(C)c1=O | 3.29
COc1cc(-c2cc(I)c(=O)n(C)c2C)cc(OC)c1CN(C)C | 1.60
Cc1cc(-c2cc(C)c(=O)n(C)c2)ccc1S(=O)(=O)N1CC(O)C1 | 2.59
COc1cc(-c2cc(C)c(=O)n(C)c2C)ccc1CN1C[C@H]2C[C@@H]1CN2C | 2.35
COc1cc(-c2cc(C)c(=O)n(C)c2)ccc1C(=O)N1C[C@@H]2CC1CN2 | 2.61
Cc1c(-c2ccc3c(c2)CNC3)cn(C)c(=O)c1C | 2.01
Cc1cc(-c2cc(C)c(=O)n(C)c2)c(C)cc1CN1CCN(C)CC1 | 3.63
COc1cc(-c2cc(C)c(=O)n(C)c2)cc(OC)c1CN(C)C1CNC1 | 1.97
COc1cc(-c2cn(C)c(=O)c3ncccc23)c(OC)cc1CN(C)C | 3.33
CN1CCN(C(=O)c2ccc(-c3cn(C)c(=O)c4ncccc34)cc2)CC1 | 3.69
Cc1cc(-c2cc(C)c(=O)n(C)c2C)ccc1C(=O)N1CCN(C)CC1 | 3.28
COc1cc(-c2cn(C)c(=O)c(C)c2C)c(OC)cc1CN1CC(O)C1 | 1.59
COc1cc(-c2cc(C)c(=O)n(C)c2)ccc1CN1C[C@@H]2CC1CN2C | 1.89
COc1cc(-c2cc(C)c(=O)n(C)c2)cc(OC)c1CN1CCN(C)CC1 | 2.31
COc1cc(-c2cc(C)c(=O)n(C)c2)ccc1CN1CCN(Cc2cccc(O)c2)CC1 | 2.12
CCc1cc(-c2cc(C)c(=O)n(C)c2)cc(OC)c1C(=O)N1CCNCC1 | 1.95
Cc1cc(-c2ccc3c(c2)CNCC3)cn(C)c1=O | 2.98
COc1cc(S(=O)(=O)N(C)CCN(C)C)c(OC)cc1-c1cc(C)c(=O)n(C)c1C | 2.22
Cc1cc(-c2ccc([C@@H](C)N3CCCCC3)cc2)cn(C)c1=O | 2.24
Cc1cc(-c2ccc([C@H](C)N3CCCCC3)cc2)cn(C)c1=O | 2.20
COc1cc(-c2cc(C)c(=O)n(C)c2)ccc1COC1CNC1 | 1.41
COc1cc(-c2cc(C)c(=O)n(C)c2)ccc1CN | 3.10
COc1cc(-c2cn(C)c(=O)c(I)c2C)cc(OC)c1CN(C)C | 1.61
Cc1cc(-c2ccc3c(c2)CNC3)cn(C)c1=O | 1.81
